measurement.label: melting point

Reference set (5 entries):
compound	melting point
CCN(C)c1nc(-c2ccc(OC)c(OC)c2)nc2sc(C#N)c(C)c12 [Example 26]	133 to 135 °C
COc1cc(-c2nc(NCC(C)C)c3c(C)c(C#N)sc3n2)cc(OC)c1OC [Example 72]	182 to 184 °C
COc1cc(-c2nc(N3CCN(C(C)=O)CC3)c3c(C)c(C#N)sc3n2)cc(OC)c1OC [Example 85]	211 to 213 °C
COc1ccc(Cc2nc(N(C)CCO)c3c(C)c(C#N)sc3n2)cc1OC [Example 105]	62 to 63 °C
Cc1c(C#N)sc2nc(-c3ccc4c(c3)OCO4)nc(N3CCOCC3)c12 [Example 37]	197 to 198 °C

# input compound: CCCNc1nc(-c2ccc(OC)c(OC)c2)nc2sc(C#N)c(C)c12 [Example 47] ; wanted: its melting point 179 to 181 °C

# input compound: C=CCN(C)c1nc(-c2ccc(OC)cc2)nc2sc(C#N)c(C)c12 [Example 29] ; wanted: its melting point 126 to 128 °C
